Value source: paper PMC6149751

Biological target: 5-HT7bR (Homo sapiens)
Construct: gene HTR7; human splice isoform 5-HT7b stably expressed in HEK293 cells; membranes
Sequence (P34969 1-432): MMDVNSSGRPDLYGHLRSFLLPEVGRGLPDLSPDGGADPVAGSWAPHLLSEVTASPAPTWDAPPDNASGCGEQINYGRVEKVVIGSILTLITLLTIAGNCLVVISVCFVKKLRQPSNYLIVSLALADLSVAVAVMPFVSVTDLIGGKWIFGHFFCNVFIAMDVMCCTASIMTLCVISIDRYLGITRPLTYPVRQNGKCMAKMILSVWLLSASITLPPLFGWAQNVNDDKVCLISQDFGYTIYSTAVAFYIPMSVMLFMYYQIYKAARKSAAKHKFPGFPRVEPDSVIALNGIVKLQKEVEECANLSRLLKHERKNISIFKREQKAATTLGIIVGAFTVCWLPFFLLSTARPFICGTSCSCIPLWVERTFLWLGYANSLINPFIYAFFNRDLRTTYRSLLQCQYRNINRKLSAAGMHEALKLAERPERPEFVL
Assay: [3H]-5-CT displacement, HEK293 membranes
Format: binding
Excerpt: [3H]-5-CT displacement, HEK293 membranes on 5-HT7bR
Each item that follows carries a reported log10(Ki).
All values: base-10 log of Ki in µM.

# annotated cases, reported log10(Ki) shown
COc1ccc(C2NCCC23C(=O)Nc2ccccc23)cc1OC (stereo not shown) [compound 7, 7]; 0.43
O=S(=O)(c1ccccc1)N1CC2(CCN(Cc3ccccc3F)C2)c2ccccc21 (stereo not shown) [44a]; 1.90

The recorded log10(Ki) for O=C1Nc2ccccc2C12CCNC2c1ccc(OCc2ccc(F)cc2)cc1 (stereo not shown) [compound 8, 8] is 0.04

The recorded log10(Ki) for O=C1Nc2ccccc2C12CCNC2c1cccc2cccnc12 (stereo not shown) [compound 12, 12] is 1.02

The recorded log10(Ki) for O=C1Nc2ccccc2C12CCNC2c1ccc2c(c1)OCCO2 (stereo not shown) [compound 10, 10] is 1.10

The recorded log10(Ki) for Cn1c(=O)n(C)c2cc(C3NCCC34C(=O)Nc3ccccc34)ccc21 (stereo not shown) [compound 15, 15] is 1.67

The recorded log10(Ki) for COc1cc(C2NCCC23C(=O)Nc2ccccc23)ccc1OC(F)F (stereo not shown) [compound 13, 13] is 0.87

The recorded log10(Ki) for CC(C)c1ccc(C2NCCC23C(=O)Nc2ccccc23)cc1 (stereo not shown) [compound 14, 14] is 0.95

The recorded log10(Ki) for N#Cc1cccnc1Oc1ccc(C2NCCC23C(=O)Nc2ccccc23)cc1 (stereo not shown) [compound 11, 11] is 1.77

The recorded log10(Ki) for O=C1Nc2ccccc2C12CCNC2c1ccc2c(c1)OCO2 (stereo not shown) [compound 9, 9] is 0.95

----------
Biological target: 5-HT2AR (Homo sapiens)
Construct: gene HTR2A; full-length human receptor expressed from plasmid in CHO-K1 cells (PerkinElmer); membranes
Sequence (P28223 whole entry): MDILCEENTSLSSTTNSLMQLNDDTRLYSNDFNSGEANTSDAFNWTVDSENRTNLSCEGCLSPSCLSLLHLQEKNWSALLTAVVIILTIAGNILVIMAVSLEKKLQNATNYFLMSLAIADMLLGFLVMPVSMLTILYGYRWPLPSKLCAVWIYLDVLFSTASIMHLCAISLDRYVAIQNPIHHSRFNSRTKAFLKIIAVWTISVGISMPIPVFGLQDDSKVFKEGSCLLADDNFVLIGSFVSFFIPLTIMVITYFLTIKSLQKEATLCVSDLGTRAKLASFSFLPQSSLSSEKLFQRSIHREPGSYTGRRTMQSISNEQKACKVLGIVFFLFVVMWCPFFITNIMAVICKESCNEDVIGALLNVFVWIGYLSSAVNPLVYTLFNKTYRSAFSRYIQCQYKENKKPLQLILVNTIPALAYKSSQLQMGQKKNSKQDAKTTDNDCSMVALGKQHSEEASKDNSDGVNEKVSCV
Assay: [3H]-Ketanserin displacement, CHO-K1 membranes
Assay type: binding
Details: read-out: 5-HT2A
reported.endpoint: Ki (µM)
Please state the figure in µM; there is no need to write the unit.

The recorded Ki for O=S(=O)(c1ccccc1)N1CC2(CCN(Cc3ccccc3)C2)c2ccccc21 (stereo not shown) [39a] is 4.76

The recorded Ki for O=C1Nc2ccccc2C12CCNC2c1cccc(F)c1 (stereo not shown) [compound 6] is 5.05

The recorded Ki for CN1CCC2(C1)CN(S(=O)(=O)c1ccccc1)c1ccccc12 (stereo not shown) [40a] is 4.52

The recorded Ki for CCN1CCC2(C1)CN(S(=O)(=O)c1ccccc1)c1ccccc12 (stereo not shown) [40b] is 3.82

----------
Each item that follows carries a reported pKi.
Target: 5-HT6R (Homo sapiens, UniProt P50406)
Construct: gene HTR6; full-length human receptor stably expressed in HEK293 cells; membranes
Sequence (P50406 whole entry): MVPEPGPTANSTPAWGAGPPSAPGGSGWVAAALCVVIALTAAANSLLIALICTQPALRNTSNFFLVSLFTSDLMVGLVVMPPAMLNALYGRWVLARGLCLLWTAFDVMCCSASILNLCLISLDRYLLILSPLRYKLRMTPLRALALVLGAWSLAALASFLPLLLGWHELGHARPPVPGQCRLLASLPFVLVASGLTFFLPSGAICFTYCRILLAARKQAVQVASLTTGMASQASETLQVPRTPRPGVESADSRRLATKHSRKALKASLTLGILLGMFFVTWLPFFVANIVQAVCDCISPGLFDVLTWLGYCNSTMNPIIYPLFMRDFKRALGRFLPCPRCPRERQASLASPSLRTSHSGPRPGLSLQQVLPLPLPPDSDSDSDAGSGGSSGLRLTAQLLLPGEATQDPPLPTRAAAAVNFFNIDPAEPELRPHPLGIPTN
Experiment: [3H]-LSD displacement, HEK293 membranes
Type: binding
Conditions: read-out: 5-HT6
Description: [3H]-LSD displacement, HEK293 membranes on 5-HT6R
Just the number, please; pKi means minus log10 of the concentration in mol/L.

O=S(=O)(c1cccc(F)c1)N1CC2(CCN(Cc3ccccc3)C2)c2ccccc21 (stereo not shown) [46b]; 6.15

The recorded pKi for O=C1Nc2ccccc2C12CCNC2c1cccc(F)c1 (stereo not shown) is 5.17

The recorded pKi for O=S(=O)(c1ccccc1)N1CC2(CCN(Cc3cccc(F)c3)C2)c2ccccc21 (stereo not shown) [44b] is 5.71
